Sourced from patent US10221163B2

Reported pIC50 values follow for various compounds
Target: VIM-1 (Pseudomonas aeruginosa (strain ATCC 15692 / DSM 22644 / CIP 104116 / JCM 14847 / LMG 12228 / 1C / PRS 101 / PAO1))
Assay: biochemical
Conditions: fluorescence assay, CCF2-FA substrate, 30 pM enzyme, 2 hours at 25° C.; read-out: VIM-1 IC50
Keep in mind that pIC50 stands for -log10 of concentration in molar terms.

Field: example entries. Status: answers known.
NC(=O)c1csc(Nc2cccc(-c3ccc(S(=O)(=O)N[C@@H]4CCNC4)c(S(N)(=O)=O)c3-c3nn[nH]n3)c2)n1 [Example 471]
10.13
Cn1c(N)nc2c(-c3ccc(S(=O)(=O)NCCCN)c(S(N)(=O)=O)c3-c3nn[nH]n3)cccc21 [Example 183]
9.96
NS(=O)(=O)c1c(S(=O)(=O)N[C@@H]2CCNC2)ccc(-c2cnc3ccccn23)c1-c1nnn[nH]1 [Example 140]
9.95
NC[C@H](CO)NS(=O)(=O)c1ccc(-c2cccc(N)n2)c(-c2nn[nH]n2)c1S(N)(=O)=O [Example 364]
8.49

Task: Which pIC50 is reported for this compound? NCCNS(=O)(=O)c1ccc(-c2cccc3nonc23)c(-c2nn[nH]n2)c1S(N)(=O)=O [Example 239]
Result: 9.95
